Species: Rattus norvegicus
methodDescription: Displacement of [3H]NPY from rat brain NPY receptor compared to benextramine
# binarize Relative activity: threshold 1 inclusive, high side 1.0, low side 0.0

Completed entries (count: 4):
> print(dat)
                          compoundstructure  category
1  Oc1cccc(CNCCCCCCNCCSSCCNCCCCCCNCc2cccc(O)c2)c1       1.0
2  Oc1ccc(CNCCCCCCNCCSSCCNCCCCCCNCc2ccc(O)cc2)cc1       0.0
3  c1ccc(CNCCCCCCNCCSSCCNCCCCCCNCc2ccccc2)cc1       0.0
4  Clc1cccc(CNCCCCCCNCCSSCCNCCCCCCNCc2cccc(Cl)c2)c1       1.0

Query: Quick check, Relative activity >= 1? Clc1ccc(CNCCCCCCNCCSSCCNCCCCCCNCc2ccc(Cl)cc2)cc1
Response: 1.0

Query: Quick check, Relative activity >= 1? COc1ccc(CNCCCCCCNCCSSCCNCCCCCCNCc2ccc(OC)cc2)cc1
Response: 1.0

Query: Quick check, Relative activity >= 1? NCCCCCCNCCSSCCNCCCCCCN
Response: 0.0

Query: Quick check, Relative activity >= 1? Clc1ccccc1CNCCCCCCNCCSSCCNCCCCCCNCc1ccccc1Cl
Response: 0.0

Query: Quick check, Relative activity >= 1? Oc1ccccc1CNCCCCCCNCCSSCCNCCCCCCNCc1ccccc1O
Response: 1.0

Query: Quick check, Relative activity >= 1? c1ccc2cc(CNCCCCCCNCCSSCCNCCCCCCNCc3ccc4ccccc4c3)ccc2c1
Response: 1.0

Query: Quick check, Relative activity >= 1? COc1cccc(CNCCCCCCNCCSSCCNCCCCCCNCc2cccc(OC)c2)c1
Response: 1.0

---

methodDescription: Binding affinity against rat NPY receptor by using [3H]NPY as radioligand
Let's look at some compounds and their measured IC50.
Give just the numeric value; µM need not be written.

Some compounds with known IC50 results, for comparison:
> print(dat)
                          compoundstructure  reportedvalue
1  COc1ccc(CNCCCCCCNCCSSCCNCCCCCCNCc2ccc(OC)cc2)cc1           44.1
2  Clc1cccc(CNCCCCCCNCCSSCCNCCCCCCNCc2cccc(Cl)c2)c1           46.7
3  COc1cccc(CNCCCCCCNCCSSCCNCCCCCCNCc2cccc(OC)c2)c1           21.5

# next compound below
Recorded IC50 (compound COc1ccccc1CNCCCCCCNCCSSCCNCCCCCCNCc1ccccc1OC ): 57.6

---

Let's look at some compounds and their measured IC50.
methodDescription: Binding affinity against rat NPY receptor by using [3H]NPY as radioligand
Give just the numeric value; µM need not be written.

Recorded IC50 (compound c1ccc(CNCCCCCCNCCSSCCNCCCCCCNCc2ccccc2)cc1 ): 191

Recorded IC50 (compound c1ccc2cc(CNCCCCCCNCCSSCCNCCCCCCNCc3ccc4ccccc4c3)ccc2c1 ): 31.3

Recorded IC50 (compound Clc1ccc(CNCCCCCCNCCSSCCNCCCCCCNCc2ccc(Cl)cc2)cc1 ): 37.8

Recorded IC50 (compound Oc1cccc(CNCCCCCCNCCSSCCNCCCCCCNCc2cccc(O)c2)c1 ): 20.3

Recorded IC50 (compound Oc1ccccc1CNCCCCCCNCCSSCCNCCCCCCNCc1ccccc1O ): 50.6

Recorded IC50 (compound Clc1ccccc1CNCCCCCCNCCSSCCNCCCCCCNCc1ccccc1Cl ): 79.9

Recorded IC50 (compound Oc1ccc(CNCCCCCCNCCSSCCNCCCCCCNCc2ccc(O)cc2)cc1 ): 162
